tested on: SR leukemia; test: NCI tumour cell line growth inhibition, 48 h
Please provide measured TGI for the entries that follow.

Reference set, count: 6
COc1cc2oc(-c3ccc(O)cc3)cc(=O)c2c(OC)c1OC :: > 100 µM
C[N+]12CCCCC1C(COc1cccc3cccnc13)CCC2 (configuration not stated) :: > 100 µM
Cc1nc2ccccc2c(=O)n1NC(=O)c1ccccn1 :: > 100 µM
C1C2CC3CC1CC(c1nn4c(C56CC7CC(CC(C7)C5)C6)nnc4s1)(C2)C3 :: > 100 µM
CCS(=O)(=O)c1ccc(OC)c(Nc2ncc(-c3cccc(OC)c3)o2)c1 :: 24.3 µM
Cc1sc2nc(N(C)C)oc(=O)c2c1C :: > 100 µM

Go through the items and report each one's TGI.
1. CCN1C(=O)CNc2ncc(-c3ccc(-c4ncn[nH]4)nc3C)nc21
2. CC1CN1CC(O)C(O)CN1CC1C (configuration not stated)

Response line:
1. 4.09 µM
2. > 100 µM

Go through the items and report each one's TGI.
1. CC(=O)NC1C(OCc2ccccc2)OC(CO)C(O)C1OC(C)C(=O)NC(C(=O)NC(CCC(=O)NCCCC(=O)Nc1ccc2c(c1)CN1C(=O)c3ccccc3C1=N2)C(N)=O)C(C)C (configuration not stated)
2. CCOC(=O)C1(CO)CSCCSC1
3. Cc1nc(N)c(N2CCN(S(N)(=O)=O)CC2)c(=O)[nH]1
4. Cc1ccc(S(=O)(=O)NC(=O)NCc2ccc(S(N)(=O)=O)cc2)cc1
5. Cc1ccc(S(=O)(=O)n2c(-c3ccccc3)c(-c3ccccc3)c3ccccc32)cc1

Response line:
1: > 100 µM; 2: > 100 µM; 3: > 100 µM; 4: > 100 µM; 5: > 100 µM

Go through the items and report each one's TGI.
1. CCS(=O)(=O)c1ccc(OC)c(Nc2ncc(-c3cccc(C(C)=O)c3)o2)c1
2. O=C1c2ccccc2-c2c1c1ccccc1c(=O)n2Cc1ccccc1
3. COc1c2c(cc3nc4ccccc4nc13)CCC(C(C)(C)O)C2 (configuration not stated)
4. Cc1cn2c(/C=C3/C(=O)N(C)c4ccccc43)c(C)nc2s1

Response line:
1. > 25 µM
2. > 100 µM
3. > 100 µM
4. 7.37 µM
